The values you see were collected from patent US20210380630A1.

system_name: aromatase (human placental microsomes) (Homo sapiens)
Construct: protein (2 mg) from human placental microsomes; from tissue; host or cells: human placenta (microsomal fraction)
Sequence (P11511 whole entry): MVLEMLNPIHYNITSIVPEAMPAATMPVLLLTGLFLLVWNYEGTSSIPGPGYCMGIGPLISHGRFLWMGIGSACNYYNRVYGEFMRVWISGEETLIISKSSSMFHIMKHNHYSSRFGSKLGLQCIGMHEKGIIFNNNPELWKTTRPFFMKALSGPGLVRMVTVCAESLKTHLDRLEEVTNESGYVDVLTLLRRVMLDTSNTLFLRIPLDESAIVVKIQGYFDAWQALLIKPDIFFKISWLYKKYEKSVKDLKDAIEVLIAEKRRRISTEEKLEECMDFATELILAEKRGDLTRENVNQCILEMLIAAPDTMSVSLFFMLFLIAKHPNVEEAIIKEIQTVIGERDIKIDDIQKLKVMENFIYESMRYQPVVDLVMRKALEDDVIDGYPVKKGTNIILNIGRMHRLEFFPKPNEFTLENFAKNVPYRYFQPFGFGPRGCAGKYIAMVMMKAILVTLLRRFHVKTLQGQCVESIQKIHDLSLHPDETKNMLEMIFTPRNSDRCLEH
procedure_summary: human placental aromatase assay
Assay type: biochemical
test_settings: human placental microsomes, 10 μM testosterone, estradiol by UPLC; read-out: IC50 aromatase inhibition
parameter_measured: IC50 (nM)
Dear colleague, please return just the value in nM, with no unit written.

// query IC50 value for entry C[C@]12CC[C@H](O)C(=O)C1C[C@H](O)[C@@H]1[C@@H]2CC[C@]2(C)C(=O)CC[C@@H]12 (stereo partly drawn) [Compound 3, 3β,7β-Dihydroxyandrostane-4,17-dione]
1370
